Target desc: T1, human GM-CSFRα, full length on cells (human, UniProt P15509 23-400)
T1 sequence: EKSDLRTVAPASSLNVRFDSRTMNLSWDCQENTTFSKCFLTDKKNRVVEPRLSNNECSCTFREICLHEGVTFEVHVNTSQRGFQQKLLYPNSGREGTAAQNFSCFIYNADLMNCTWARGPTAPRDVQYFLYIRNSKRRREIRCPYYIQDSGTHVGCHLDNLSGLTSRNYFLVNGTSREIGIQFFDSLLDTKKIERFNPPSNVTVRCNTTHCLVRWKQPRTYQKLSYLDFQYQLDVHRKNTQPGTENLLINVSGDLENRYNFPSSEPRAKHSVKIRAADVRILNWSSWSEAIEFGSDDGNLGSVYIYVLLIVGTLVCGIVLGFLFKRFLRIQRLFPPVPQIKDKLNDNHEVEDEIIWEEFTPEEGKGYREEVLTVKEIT
Assay explanation: cell-based or functional assay
Here, each record is paired with measured IC50, TF-1 cell proliferation data.
Measurement type: IC50, TF-1 cell proliferation (µg/mL)

1. E35-scFv HT30R (scFv, V domains shown) VH: QMQLVQSGAEVKKPGASVKVSCKVSGYTLRELSIHWVRQAPGKGLEWMGGFDPEDGETIYAQKFQGRVTMTGDTSTDTAYLELSSLRSEDTALYYCATGRYTSLATTYGFDYWGQGTLVTVSS VL: EIVMTQSPATLSLSPGERATLSCRASQSVSSYLAWYQQKPGQAPRLLIYGASSRATGIPDRFSGSGSGTDFTLTISRLEPEDFAVYYCQQYDNWPYTFGQGTKLEIK | 0.35
2. E35-scFv HT30D (scFv, V domains shown) VH: QMQLVQSGAEVKKPGASVKVSCKVSGYTLDELSIHWVRQAPGKGLEWMGGFDPEDGETIYAQKFQGRVTMTGDTSTDTAYLELSSLRSEDTALYYCATGRYTSLATTYGFDYWGQGTLVTVSS VL: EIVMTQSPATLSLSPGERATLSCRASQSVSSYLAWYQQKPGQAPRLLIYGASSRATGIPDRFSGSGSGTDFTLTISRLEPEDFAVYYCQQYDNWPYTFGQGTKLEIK | 0.132
3. E35-scFv LA51L (scFv, V domains shown) VH: QMQLVQSGAEVKKPGASVKVSCKVSGYTLTELSIHWVRQAPGKGLEWMGGFDPEDGETIYAQKFQGRVTMTGDTSTDTAYLELSSLRSEDTALYYCATGRYTSLATTYGFDYWGQGTLVTVSS VL: EIVMTQSPATLSLSPGERATLSCRASQSVSSYLAWYQQKPGQAPRLLIYGLSSRATGIPDRFSGSGSGTDFTLTISRLEPEDFAVYYCQQYDNWPYTFGQGTKLEIK | 0.5
4. E35-scFv LG50C (scFv, V domains shown) VH: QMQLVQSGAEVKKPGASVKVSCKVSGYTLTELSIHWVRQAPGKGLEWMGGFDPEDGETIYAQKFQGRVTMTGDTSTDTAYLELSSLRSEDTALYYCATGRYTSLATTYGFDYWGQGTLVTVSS VL: EIVMTQSPATLSLSPGERATLSCRASQSVSSYLAWYQQKPGQAPRLLIYCASSRATGIPDRFSGSGSGTDFTLTISRLEPEDFAVYYCQQYDNWPYTFGQGTKLEIK | 25.7
5. E35-scFv HT30E (scFv, V domains shown) VH: QMQLVQSGAEVKKPGASVKVSCKVSGYTLEELSIHWVRQAPGKGLEWMGGFDPEDGETIYAQKFQGRVTMTGDTSTDTAYLELSSLRSEDTALYYCATGRYTSLATTYGFDYWGQGTLVTVSS VL: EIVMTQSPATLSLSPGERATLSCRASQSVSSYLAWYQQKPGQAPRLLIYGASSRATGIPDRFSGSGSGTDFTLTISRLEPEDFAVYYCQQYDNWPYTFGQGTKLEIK | 0.132
